- target system: UniProtKB O95819
- method summary: MAP4K4 fragment screen, KD of fragment hits
- Type: binding
- test conditions: fragment screening hits; read-out: MAP4K4 inact KD
# if measured Kd < 20 µM: satisfied  # else: not satisfied

Recorded results for 3 compounds are shown here.
OCc1ccc(-c2cncnc2)cc1	not satisfied
Nc1n[nH]c2cc(-c3ccccc3)ccc12	satisfied
Nc1ccc2[nH]nc(-c3ccccc3)c2c1	satisfied

## Task Does `Nc1ncncc1-c1ccc(O)cc1` have Kd strictly under 20 µM?
## Result satisfied

## Task Could you please tell me whether Kd recorded for `Nc1c(-c2ccccc2)nn2ccccc12` is less than 20 µM?
## Result not satisfied

----------
- target system: MAP4K4 kinase (Homo sapiens, UniProt O95819)
- Sequence (O95819 whole entry, the tested form may be a part): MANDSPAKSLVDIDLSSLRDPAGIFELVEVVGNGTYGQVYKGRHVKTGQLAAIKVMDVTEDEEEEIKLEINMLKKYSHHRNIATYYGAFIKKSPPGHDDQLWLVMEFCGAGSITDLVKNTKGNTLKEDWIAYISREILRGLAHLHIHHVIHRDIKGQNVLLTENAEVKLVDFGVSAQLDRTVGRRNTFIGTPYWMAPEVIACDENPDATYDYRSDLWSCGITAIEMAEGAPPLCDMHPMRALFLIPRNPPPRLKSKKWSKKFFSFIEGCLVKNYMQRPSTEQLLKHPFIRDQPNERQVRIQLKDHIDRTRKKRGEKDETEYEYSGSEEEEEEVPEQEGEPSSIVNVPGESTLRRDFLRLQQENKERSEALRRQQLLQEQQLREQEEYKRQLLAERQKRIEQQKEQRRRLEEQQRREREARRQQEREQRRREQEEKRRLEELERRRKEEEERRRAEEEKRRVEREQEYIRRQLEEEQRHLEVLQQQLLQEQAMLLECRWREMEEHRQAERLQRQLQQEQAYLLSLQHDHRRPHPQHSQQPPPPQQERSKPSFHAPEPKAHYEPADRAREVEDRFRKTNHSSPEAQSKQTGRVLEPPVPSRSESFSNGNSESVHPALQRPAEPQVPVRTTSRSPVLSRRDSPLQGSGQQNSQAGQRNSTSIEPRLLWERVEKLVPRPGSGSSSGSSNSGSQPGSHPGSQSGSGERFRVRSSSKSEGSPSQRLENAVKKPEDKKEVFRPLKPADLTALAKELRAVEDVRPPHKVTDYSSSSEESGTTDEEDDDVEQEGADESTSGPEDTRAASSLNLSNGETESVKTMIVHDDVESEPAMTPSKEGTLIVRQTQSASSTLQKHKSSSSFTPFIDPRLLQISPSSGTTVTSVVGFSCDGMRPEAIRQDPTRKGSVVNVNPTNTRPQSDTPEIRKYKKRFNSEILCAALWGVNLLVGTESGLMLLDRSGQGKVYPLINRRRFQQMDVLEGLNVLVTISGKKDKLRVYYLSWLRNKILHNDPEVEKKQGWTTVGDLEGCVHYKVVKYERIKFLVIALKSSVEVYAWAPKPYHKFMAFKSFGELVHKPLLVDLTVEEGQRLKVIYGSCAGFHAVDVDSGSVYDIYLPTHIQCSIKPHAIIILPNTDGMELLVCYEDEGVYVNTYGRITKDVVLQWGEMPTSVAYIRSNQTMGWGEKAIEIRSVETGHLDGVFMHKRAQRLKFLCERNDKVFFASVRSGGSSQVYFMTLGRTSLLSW
- method summary: MAP4K4 fragment screen, KD of fragment hits
- Type: binding
- test conditions: LE computed as 1.4*pKd/nHeavyAtoms
- Excerpt: Utilizing additional fragment collections, we expanded our previous ~2,500 compound screen of the MAP4K4 kinase by performing an additional screen of 8,000 compounds [28]. […] AAP similarity and DISE clustering were used to cluster the combined hit set fragments. The fragment hits were sorted according to their LE, followed by the cluster seed selection. The AAP similarity threshold in this step was 0.3. The remaining hits were assigned to the most similar cluster seed.
This section presents compounds with their documented Ligand Efficiency values.
Reply with just the number.

Consider the worked cases shown below.
Nc1ccc2[nH]nc(-c3ccccc3)c2c1	0.41
Nc1c(-c2ccccc2)nn2ccccc12	0.31
c1ccc(-c2n[nH]c3ccccc23)cc1	0.5

With those in mind, consider the next compound.
## Task Look up and state reported Ligand Efficiency for `Nc1n[nH]c2cc(-c3ccccc3)ccc12`
## Result 0.49
